- system_tested: rat TIMP-1 (rat, UniProt P30120 24-217)
- Sequence (P30120 24-217 limits assumed): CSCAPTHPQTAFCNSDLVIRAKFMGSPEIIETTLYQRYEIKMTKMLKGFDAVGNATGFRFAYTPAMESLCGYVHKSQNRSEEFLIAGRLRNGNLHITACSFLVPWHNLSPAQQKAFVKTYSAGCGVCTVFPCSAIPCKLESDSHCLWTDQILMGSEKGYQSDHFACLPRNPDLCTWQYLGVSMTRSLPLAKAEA
- procedure_text: SPR (BIAcore), TIMP-1 coupled to chip, monovalent Fab
pKd: −log10 of the molar value.

binder	pKd
MS-BW-54-1 (Fab, V domains shown, Fab from LCDR1, -2, -3 optimization of MS-BW-54) VH: QVQLVQSGAEVKKPGESLKISCKGSGYSFTSYWIGWVRQMPGKGLEWMGIIYPGDSDTRYSPSFQGQVTISADKSISTAYLQWSSLKASDTAMYYCARYYGFEYDLLFDNWGQGTLVTVSS VL: DIALTQPASVSGSPGQSITISCTGTSSDLGGYNYVSWYQQHPGKAPKLMIYAGNNRPSGVSNRFSGSKSGNTASLTISGLQAEDEADYYCQAYDSSGYPVFGGGTKLTVLG	8.70
MS-BW-17-2 (Fab, V domains shown, Fab from LCDR3 optimization of MS-BW-17) VH: QVQLVQSGAEVKKPGESLKISCKGSGYSFTSYWIGWVRQMPGKGLEWMGIIYPGDSDTRYSPSFQGQVTISADKSISTAYLQWSSLKASDTAMYYCARLTNYFDSIYYDHWGQGTLVTVSS VL: DIALTQPASVSGSPGQSITISCTGTSSDVGGYNYVSWYQQHPGKAPKLMIYDVSNRPSGVSNRFSGSKSGNTASLTISGLQAEDEADYYCQAFAVMPNVEVFGGGTKLTVLG	8.89
MS-BW-17-3 (Fab, V domains shown, Fab from LCDR3 optimization of MS-BW-17) VH: QVQLVQSGAEVKKPGESLKISCKGSGYSFTSYWIGWVRQMPGKGLEWMGIIYPGDSDTRYSPSFQGQVTISADKSISTAYLQWSSLKASDTAMYYCARLTNYFDSIYYDHWGQGTLVTVSS VL: DIALTQPASVSGSPGQSITISCTGTSSDVGGYNYVSWYQQHPGKAPKLMIYDVSNRPSGVSNRFSGSKSGNTASLTISGLQAEDEADYYCQSFTVSPGADVFGGGTKLTVLG	8.72

Source listed as patent US20140086935A1.
